Test system: cereals
Test: Container trials with cereals in a greenhouse, mefenpyr 1 day before herbicide application
Assay type: in vivo
Settings: Summer wheat; 28 days after application; 25 g a.i./ha
Method: Seeds of monocotyledonous and dicotyledonous weed and crop plants are placed in sandy loam in wood fibre pots, covered with soil and cultivated in a greenhouse under good growth conditions. […] After the test plants have been kept in the greenhouse under optimal growth conditions for about three weeks, the effect of the preparations is assessed visually by comparison to untreated controls (herbicidal effect in per cent: 100% effect=the plants have died, 0% effect=like control plants). […]

- compound: "CCc1cc(OCC(F)(F)F)cc(C)c1C1=C(O)C2(CCC3(CC2)OCCO3)NC1=O [Example I-1-a-6]"
  Summer wheat observed (%): 85
- compound: "CCc1cc(OCC(F)(F)F)cc(C)c1C1=C(O)C2(CCC3(CC2)OCC(C)O3)NC1=O (centres unmarked) [Example I-1-a-7]"
  Summer wheat observed (%): 50
- compound: "CCCCOC1CCCC2(C1)NC(=O)C(c1c(C)cc(OCC(F)(F)F)cc1CC)=C2O (centres unmarked) [Example I-1-a-15]"
  Summer wheat observed (%): 30
- compound: "CCCOC1CCCC2(C1)NC(=O)C(c1c(C)cc(OCC(F)(F)F)cc1C)=C2O (centres unmarked) [Example I-1-a-19]"
  Summer wheat observed (%): 20
- compound: "CCCOC1CCCC2(C1)NC(=O)C(c1c(C)cc(OCC(F)(F)F)cc1CC)=C2O (centres unmarked) [Example I-1-a-14]"
  Summer wheat observed (%): 99

Reference for the values: patent US9045390B2
